- System: CP191
- test-description: qHTS profiling for inhibitors of Plasmodium falciparum proliferation (AID 504749); note: nearly all actives have a fitted effect of over 60% in size
- recorded-conditions: P. falciparum in erythrocytes, SYBR Green DNA, 72 h; series mostly up to 28.7 µM
Records with an inconclusive call do not appear. Active and inactive are the calls of the source. Calls come from the whole dose curve; as a rule, active = well fitted inhibition curve with a large enough effect; inconclusive = small, poorly fitted or top-dose-only effect; inactive = flat fitted curve, though single readings scatter.
Classes used: True = active, False = inactive

[[record]]
molecule = "CC(C)C[C@H]1C(=O)N2CCCC2[C@]2(O)O[C@](NC(=O)[C@@H]3C=C4c5cccc6[nH]c(Br)c(c56)C[C@H]4N(C)C3)(C(C)C)C(=O)N12 (stereo not given in full)"
answer_label = "True"

[[record]]
molecule = "C[C@@H]1[C@H](O)[C@@H](C)/C=C/C=C/C=C/C=C/C=C/C=C/C=C/[C@H](O[C@@H]2O[C@H](C)[C@@H](O)[C@H](N)[C@@H]2O)C[C@@H]2O[C@](O)(C[C@@H](O)C[C@@H](O)[C@H](O)CC[C@@H](O)C[C@@H](O)CC(=O)O[C@H]1C)C[C@H](O)[C@H]2C(=O)O"
answer_label = "False"

[[record]]
molecule = "CN=C(N)NCCCC(N)C(=O)O (stereo not given)"
answer_label = "False"

[[record]]
molecule = "CC(C)(C)[C@]1(O)CCN2CC3c4ccccc4CCc4cccc(c43)[C@@H]2C1 (stereo not given in full)"
answer_label = "True"

[[record]]
molecule = "N[C@H](Cc1ccc(O)c(O)c1)C(=O)O"
answer_label = "False"


====

- test-description: qHTS Assay for Lipid Storage Modulators (AID 1519)
- recorded-conditions: Drosophila S3 cells, BODIPY lipid droplet/cell ratio, laser cytometry; measured here: lipid channel max response; cells loaded with oleic acid
Inconclusive results are not listed.
measured-parameter: max response

[[record]]
input_smiles = "COc1cccc(Nc2ncc3nc(-c4ccc(Cl)cc4)c(=O)n(C4CC4)c3n2)c1"
measured_parameter = "max response"
experimental_result = "-5.52%"

[[record]]
input_smiles = "N#Cc1cccc(-c2nc3cnc(Oc4cccc(Cl)c4)nc3n(C3CC3)c2=O)c1"
measured_parameter = "max response"
experimental_result = "8.29%"

[[record]]
input_smiles = "N#Cc1cccc(NC(=O)N2CC[C@@]3(CCCN(C(=O)c4ccncc4)C3)C2)c1"
measured_parameter = "max response"
experimental_result = "21.1%"

[[record]]
input_smiles = "O=C(c1csnn1)N1CCC2(CC1)CCN(c1ncccn1)CC2"
measured_parameter = "max response"
experimental_result = "6.88%"

[[record]]
input_smiles = "COCC(=O)N1CCC2(CC1)CN(C(=O)Nc1cccc(C#N)c1)C2"
measured_parameter = "max response"
experimental_result = "11%"

[[record]]
input_smiles = "O=C(c1csnn1)N1CCC2(CC1)CCN(c1ccccc1)CC2"
measured_parameter = "max response"
experimental_result = "6.57%"

[[record]]
input_smiles = "O=C(Nc1cccc(F)c1)N1CCCC2(CCN(S(=O)(=O)c3ccccc3)CC2)C1"
measured_parameter = "max response"
experimental_result = "17.3%"

[[record]]
input_smiles = "CS(=O)(=O)N1CCC2(CCN(C(=O)Nc3cccc(C#N)c3)CC2)CC1"
measured_parameter = "max response"
experimental_result = "-10.5%"

[[record]]
input_smiles = "Cn1c(=O)c(-c2cc(F)cc(F)c2)nc2cnc(Oc3ccccc3)nc21"
measured_parameter = "max response"
experimental_result = "16.5%"

[[record]]
input_smiles = "CN1CCN(c2ncc3nc(-c4ccc(F)cc4)c(=O)n(Cc4cccs4)c3n2)CC1"
measured_parameter = "max response"
experimental_result = "0.564%"

[[record]]
input_smiles = "FC(F)(F)c1ccccc1-c1nc(NCCN2CCOCC2)c2ccccc2n1"
measured_parameter = "max response"
experimental_result = "21.5%"

[[record]]
input_smiles = "CC(C)NC(=O)N1CCC2(CC1)CCN(C(=O)c1ccncc1)CC2"
measured_parameter = "max response"
experimental_result = "9.91%"

[[record]]
input_smiles = "O=C(c1cnccn1)N1CCC[C@@]2(CCN(c3ccccc3)C2)C1"
measured_parameter = "max response"
experimental_result = "18.8%"

[[record]]
input_smiles = "COCC(=O)N1CCC[C@@]2(CCN(Cc3ccc(C#N)cc3)C2)C1"
measured_parameter = "max response"
experimental_result = "15.9%"

[[record]]
input_smiles = "CS(=O)(=O)N1CCC2(CCCN(c3ccncc3)C2)CC1"
measured_parameter = "max response"
experimental_result = "26.8%"

[[record]]
input_smiles = "O=C(Oc1ccccc1)N1CCC2(CC1)CCN(c1ncccn1)CC2"
measured_parameter = "max response"
experimental_result = "1.32%"

[[record]]
input_smiles = "COCC(=O)N1CCC[C@@]2(CCN(C(=O)Nc3cccc(F)c3)C2)C1"
measured_parameter = "max response"
experimental_result = "23.6%"

[[record]]
input_smiles = "CN1CCN(c2ncc3ncc(=O)n(C[C@H]4CCCO4)c3n2)CC1"
measured_parameter = "max response"
experimental_result = "13.9%"

[[record]]
input_smiles = "COc1ccc(-n2c(=O)cnc3cnc(Oc4ccccc4)nc32)cc1"
measured_parameter = "max response"
experimental_result = "6.57%"

[[record]]
input_smiles = "COc1cccc(-c2cncnc2Nc2ccc(F)cc2)c1"
measured_parameter = "max response"
experimental_result = "18.7%"

[[record]]
input_smiles = "CC(C)NC(=O)N1CC[C@@]2(CCCN(C(=O)c3cc(C(F)(F)F)cc(C(F)(F)F)c3)C2)C1"
measured_parameter = "max response"
experimental_result = "20.3%"

[[record]]
input_smiles = "Cc1cn([C@H]2C[C@@H](N=[N+]=[N-])[C@@H](CO)O2)c(=O)[nH]c1=O"
measured_parameter = "max response"
experimental_result = "-8.16%"

[[record]]
input_smiles = "FC(F)(F)c1ccccc1-c1cc(NCCN2CCOCC2)ncn1"
measured_parameter = "max response"
experimental_result = "30.8%"

[[record]]
input_smiles = "COc1ccccc1CNc1ccnc(-c2ccoc2)n1"
measured_parameter = "max response"
experimental_result = "2.83%"

[[record]]
input_smiles = "Cc1noc(C)c1-c1cc(N(C)C)ncn1"
measured_parameter = "max response"
experimental_result = "11.9%"

[[record]]
input_smiles = "FC(F)(F)c1cc(CN2CCCC3(CCNCC3)C2)cc(C(F)(F)F)c1"
measured_parameter = "max response"
experimental_result = "2.14%"

[[record]]
input_smiles = "COc1ccc(-n2c(=O)c(-c3cn(C)c4ccccc34)nc3cnc(OC)nc32)cc1"
measured_parameter = "max response"
experimental_result = "-9.54%"

[[record]]
input_smiles = "CS(=O)(=O)N1CCC[C@@]2(CCN(C(=O)Nc3ccccc3)C2)C1"
measured_parameter = "max response"
experimental_result = "17.6%"

[[record]]
input_smiles = "Cc1noc(C)c1C(=O)N1CCC2(CCN(C(=O)NC(C)C)CC2)CC1"
measured_parameter = "max response"
experimental_result = "11.9%"

[[record]]
input_smiles = "COc1ccccc1CN1CCC2(CC1)CCN(C(C)=O)CC2"
measured_parameter = "max response"
experimental_result = "3.76%"

[[record]]
input_smiles = "c1cncc(-c2cncnc2NC2CCNCC2)c1"
measured_parameter = "max response"
experimental_result = "20%"

[[record]]
input_smiles = "CS(=O)(=O)N1CCC[C@@]2(CCN(c3ccccc3)C2)C1"
measured_parameter = "max response"
experimental_result = "-14%"

[[record]]
input_smiles = "CN(C)c1ccc(-c2ccc3ncnc(N(C)C)c3c2)cc1"
measured_parameter = "max response"
experimental_result = "8.94%"

[[record]]
input_smiles = "O=c1c(CCc2ccccc2)nc2cncnc2n1Cc1ccc(F)cc1"
measured_parameter = "max response"
experimental_result = "23.1%"

[[record]]
input_smiles = "Cc1nc2cnc(N(C)C)nc2n(C2CC2)c1=O"
measured_parameter = "max response"
experimental_result = "18.5%"

[[record]]
input_smiles = "O=C(c1cccc(F)c1)N1CCC2(CCN(Cc3cc(C(F)(F)F)cc(C(F)(F)F)c3)CC2)CC1"
measured_parameter = "max response"
experimental_result = "12.9%"

[[record]]
input_smiles = "N#Cc1ccccc1-c1ccc2ncnc(N3CCNCC3)c2c1"
measured_parameter = "max response"
experimental_result = "26.9%"

[[record]]
input_smiles = "O=C(Nc1ccccc1)N1CC[C@@]2(CCCN(C(=O)c3ccco3)C2)C1"
measured_parameter = "max response"
experimental_result = "7.34%"

[[record]]
input_smiles = "CS(=O)(=O)Nc1cccc(-c2ccc3ncnc(Nc4ccccc4)c3c2)c1"
measured_parameter = "max response"
experimental_result = "11.8%"

[[record]]
input_smiles = "N#Cc1cccc(-c2cc(NCc3ccccc3)ncn2)c1"
measured_parameter = "max response"
experimental_result = "32.1%"

[[record]]
input_smiles = "Nc1nc(SCc2ccc([N+](=O)[O-])cc2)c2ncn([C@@H]3O[C@H](CO)[C@H](O)[C@H]3O)c2n1"
measured_parameter = "max response"
experimental_result = "-38%"

[[record]]
input_smiles = "COc1ccc(-c2nc3cnc(N4CCN(C)CC4)nc3n(Cc3cccc(OC)c3)c2=O)cc1"
measured_parameter = "max response"
experimental_result = "2.85%"

[[record]]
input_smiles = "CC(=O)NCCNc1ccnc(-c2ccccc2C(F)(F)F)n1"
measured_parameter = "max response"
experimental_result = "14.6%"

[[record]]
input_smiles = "O=C(Nc1ccccc1)N1CC2(CCN(C(=O)c3ccncc3)CC2)C1"
measured_parameter = "max response"
experimental_result = "-2.29%"

